The measurements presented in this section are drawn from patent US20260317344A1.

target-of-assay: EGFR (D746-750/C797S) (Homo sapiens, UniProt P00533, C797S/DEL746-750)
Sequence (P00533 with tags, fused parts or gaps DEL746-750/C797S): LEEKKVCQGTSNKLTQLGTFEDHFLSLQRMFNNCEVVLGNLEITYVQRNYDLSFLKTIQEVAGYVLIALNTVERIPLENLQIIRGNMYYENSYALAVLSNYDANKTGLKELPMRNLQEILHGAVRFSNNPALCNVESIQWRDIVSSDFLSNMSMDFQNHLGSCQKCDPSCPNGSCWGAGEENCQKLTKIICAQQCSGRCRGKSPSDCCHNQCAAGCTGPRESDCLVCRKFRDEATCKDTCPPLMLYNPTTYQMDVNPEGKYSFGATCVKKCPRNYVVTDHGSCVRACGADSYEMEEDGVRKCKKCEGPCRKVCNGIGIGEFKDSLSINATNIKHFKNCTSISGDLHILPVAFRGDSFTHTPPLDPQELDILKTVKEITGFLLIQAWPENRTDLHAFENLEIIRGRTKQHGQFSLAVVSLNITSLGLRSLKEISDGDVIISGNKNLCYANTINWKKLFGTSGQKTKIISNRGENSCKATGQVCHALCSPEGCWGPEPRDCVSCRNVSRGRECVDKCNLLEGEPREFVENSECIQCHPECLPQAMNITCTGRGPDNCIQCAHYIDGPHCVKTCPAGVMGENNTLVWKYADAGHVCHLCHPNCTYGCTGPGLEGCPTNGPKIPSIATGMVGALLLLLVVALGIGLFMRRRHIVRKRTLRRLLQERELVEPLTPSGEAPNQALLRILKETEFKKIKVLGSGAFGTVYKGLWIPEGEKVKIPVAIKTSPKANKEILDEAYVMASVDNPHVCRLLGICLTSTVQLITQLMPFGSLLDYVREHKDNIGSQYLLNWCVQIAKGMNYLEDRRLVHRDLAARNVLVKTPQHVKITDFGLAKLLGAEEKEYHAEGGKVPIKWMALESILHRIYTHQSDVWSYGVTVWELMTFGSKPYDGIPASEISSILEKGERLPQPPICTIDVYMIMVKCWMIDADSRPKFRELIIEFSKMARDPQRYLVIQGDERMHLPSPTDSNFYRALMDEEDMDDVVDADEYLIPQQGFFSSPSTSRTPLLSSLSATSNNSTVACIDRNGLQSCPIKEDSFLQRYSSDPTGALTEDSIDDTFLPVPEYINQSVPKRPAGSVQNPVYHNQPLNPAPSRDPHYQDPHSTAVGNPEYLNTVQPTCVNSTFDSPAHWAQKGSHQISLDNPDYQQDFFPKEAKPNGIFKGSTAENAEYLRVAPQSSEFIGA
test-details: HotSpot radiometric kinase assay, inhibition of EGFR 746-750/C797S mutant
stated-conditions: 33P ATP, room temperature, 120 m
reported-property: IC50 (nM)

INSERT INTO assay_data (query_smiles, reported_property, unit_tag, result_value) VALUES
  ('Cc1nn(C)c2c1-c1cc3c(n[nH]c3c(C)n1)/C=C/c1c(OCC#N)nn(CCO)c1CN(C)C[C@H](C)O2', 'IC50', 'nM', 1.09);

(1) CCOc1nn(CCO)c2c1/C=C/c1n[nH]c3c(C)nc(cc13)-c1cnn(C)c1O[C@@H](C)CN(CC)C2
(2) Cc1nn([C@@H](C)CO)c2c1/C=C/c1n[nH]c3cnc(cc13)-c1c(C)nn(C)c1O[C@@H](C)CN(C)C2
(3) CCOc1nn(CCO)c2c1/C=C/c1n[nH]c3cnc(cc13)-c1c(C)nn(C)c1O[C@H](C)CN(C(C)C)C2
Input: Kindly order the items shown according to IC50, from the highest value down. Write the labels, ordered according to the request.
Output: 3, 1, 2
(3: 1.54 nM, 1: 0.85 nM, 2: 0.4 nM)

###

target-of-assay: EGFR (D746-750/C797S) (Homo sapiens, UniProt P00533, C797S/DEL746-750)
test-details: HotSpot radiometric kinase assay, inhibition of EGFR 746-750/C797S mutant
stated-conditions: 33P ATP, room temperature, 120 m
pIC50: −log10 of the molar value.
reported-property: pIC50

Worked set:
INSERT INTO measurements (compound, reported_property, result_value) VALUES
  ('CCOc1nn([C@@H](C)CO)c2c1/C=C/c1n[nH]c3cnc(cc13)-c1c(C)nn(C)c1O[C@@H](C)CN(C)C2 [Ex. 27]', 'pIC50', 9.05),
  ('CCOc1nn(CCO)c2c1/C=C/c1n[nH]c3cnc(cc13)-c1c(C)nn(C)c1OCCN(C)C2 [Ex. 68]', 'pIC50', 8.93);

(1) CCc1nn(CCO)c2c1/C=C/c1n[nH]c3cnc(cc13)-c1c(C)nn(C)c1O[C@H](C)CN(CC)C2 [Ex. 55]
(2) CCN1Cc2c(c(OC(C)C)nn2CCO)/C=C/c2n[nH]c3cnc(cc23)-c2cnn(C)c2O[C@@H](C)C1 [Ex. 9]
Input: Hi there, can you help? I need to know whether 1 or 2 has lower measured pIC50. Let me know the label of the one you choose.
Output: 1
(1: 9.14, 2: 9.48)

###

target-of-assay: EGFR (L858R/T790M/C797S) (Homo sapiens, UniProt P00533, C797S/L858R/T790M)
Sequence (P00533 25-1210 T790M/C797S/L858R): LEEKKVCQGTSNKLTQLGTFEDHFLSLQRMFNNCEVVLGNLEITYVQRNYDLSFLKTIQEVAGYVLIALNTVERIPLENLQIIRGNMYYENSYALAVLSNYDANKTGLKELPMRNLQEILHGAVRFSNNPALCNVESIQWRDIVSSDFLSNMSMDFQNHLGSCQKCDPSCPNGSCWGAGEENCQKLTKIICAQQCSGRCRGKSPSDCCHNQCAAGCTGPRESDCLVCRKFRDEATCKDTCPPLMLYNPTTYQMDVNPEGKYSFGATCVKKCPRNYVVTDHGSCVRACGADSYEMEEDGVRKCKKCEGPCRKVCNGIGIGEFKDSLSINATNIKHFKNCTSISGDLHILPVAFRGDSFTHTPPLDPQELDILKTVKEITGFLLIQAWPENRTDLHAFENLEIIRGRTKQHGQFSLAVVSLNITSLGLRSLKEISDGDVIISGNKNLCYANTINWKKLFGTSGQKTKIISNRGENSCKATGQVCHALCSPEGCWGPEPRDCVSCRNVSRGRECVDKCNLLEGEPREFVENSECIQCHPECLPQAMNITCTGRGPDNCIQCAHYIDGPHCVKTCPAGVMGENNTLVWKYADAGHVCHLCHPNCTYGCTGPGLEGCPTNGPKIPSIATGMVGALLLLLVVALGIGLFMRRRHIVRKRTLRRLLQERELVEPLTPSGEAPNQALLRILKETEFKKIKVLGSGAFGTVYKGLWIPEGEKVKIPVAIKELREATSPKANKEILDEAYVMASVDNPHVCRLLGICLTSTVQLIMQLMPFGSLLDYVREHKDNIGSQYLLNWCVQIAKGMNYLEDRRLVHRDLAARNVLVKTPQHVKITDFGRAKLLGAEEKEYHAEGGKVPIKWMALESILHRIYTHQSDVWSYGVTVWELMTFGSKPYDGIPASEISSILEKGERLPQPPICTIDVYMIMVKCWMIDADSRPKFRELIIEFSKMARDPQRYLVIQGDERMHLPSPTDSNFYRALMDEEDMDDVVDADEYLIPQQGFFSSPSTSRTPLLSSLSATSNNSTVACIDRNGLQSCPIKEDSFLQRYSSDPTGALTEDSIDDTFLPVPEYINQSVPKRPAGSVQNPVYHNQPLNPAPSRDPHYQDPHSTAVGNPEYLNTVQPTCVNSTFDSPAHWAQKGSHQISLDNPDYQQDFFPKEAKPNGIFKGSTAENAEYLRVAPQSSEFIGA
test-details: HotSpot radiometric kinase assay, inhibition of EGFR L858R/T790M/C797S mutant
stated-conditions: 33P ATP, room temperature, 120 m
pIC50: −log10 of the molar value.
reported-property: pIC50

(a) Cc1nn(CCO)c2c1/C=C/c1n[nH]c3cnc(cc13)-c1c(C)nn(C)c1O[C@@H](C)CN(C)C2
(b) CCc1nn([C@@H](C)CO)c2c1/C=C/c1n[nH]c3cnc(cc13)-c1c(C)nn(C)c1O[C@@H](C)CN(C)C2
(c) CCOc1nn(CCO)c2c1/C=C/c1n[nH]c3cnc(cc13)-c1c(c(C)nn1C)OCCN(C)C2
(d) CCOc1nn(CCO)c2c1/C=C/c1n[nH]c3cnc(cc13)-c1c(C)nn(C)c1O[C@@H](C)CN(C)C2
Input: In a descending ranking, list each entry from above by its pIC50, from the largest value down to the smallest. Write the labels, ordered according to the request.
Output: a, d, b, c
(a: 9.64, d: 9.24, b: 9.04, c: 8.71)
